Recorded values, source patent US10280170B2.

- Target: Ba/F3 cells containing Ros1 wild-type protein (Homo sapiens, UniProt P08922, cells depend on it, form not given)
- Construct: The background only speaks of 'a number of different unrelated proteins' and names SLC34A2-ROS1 for HCC78 cells
- Sequence (P08922 whole entry, stated change not applied): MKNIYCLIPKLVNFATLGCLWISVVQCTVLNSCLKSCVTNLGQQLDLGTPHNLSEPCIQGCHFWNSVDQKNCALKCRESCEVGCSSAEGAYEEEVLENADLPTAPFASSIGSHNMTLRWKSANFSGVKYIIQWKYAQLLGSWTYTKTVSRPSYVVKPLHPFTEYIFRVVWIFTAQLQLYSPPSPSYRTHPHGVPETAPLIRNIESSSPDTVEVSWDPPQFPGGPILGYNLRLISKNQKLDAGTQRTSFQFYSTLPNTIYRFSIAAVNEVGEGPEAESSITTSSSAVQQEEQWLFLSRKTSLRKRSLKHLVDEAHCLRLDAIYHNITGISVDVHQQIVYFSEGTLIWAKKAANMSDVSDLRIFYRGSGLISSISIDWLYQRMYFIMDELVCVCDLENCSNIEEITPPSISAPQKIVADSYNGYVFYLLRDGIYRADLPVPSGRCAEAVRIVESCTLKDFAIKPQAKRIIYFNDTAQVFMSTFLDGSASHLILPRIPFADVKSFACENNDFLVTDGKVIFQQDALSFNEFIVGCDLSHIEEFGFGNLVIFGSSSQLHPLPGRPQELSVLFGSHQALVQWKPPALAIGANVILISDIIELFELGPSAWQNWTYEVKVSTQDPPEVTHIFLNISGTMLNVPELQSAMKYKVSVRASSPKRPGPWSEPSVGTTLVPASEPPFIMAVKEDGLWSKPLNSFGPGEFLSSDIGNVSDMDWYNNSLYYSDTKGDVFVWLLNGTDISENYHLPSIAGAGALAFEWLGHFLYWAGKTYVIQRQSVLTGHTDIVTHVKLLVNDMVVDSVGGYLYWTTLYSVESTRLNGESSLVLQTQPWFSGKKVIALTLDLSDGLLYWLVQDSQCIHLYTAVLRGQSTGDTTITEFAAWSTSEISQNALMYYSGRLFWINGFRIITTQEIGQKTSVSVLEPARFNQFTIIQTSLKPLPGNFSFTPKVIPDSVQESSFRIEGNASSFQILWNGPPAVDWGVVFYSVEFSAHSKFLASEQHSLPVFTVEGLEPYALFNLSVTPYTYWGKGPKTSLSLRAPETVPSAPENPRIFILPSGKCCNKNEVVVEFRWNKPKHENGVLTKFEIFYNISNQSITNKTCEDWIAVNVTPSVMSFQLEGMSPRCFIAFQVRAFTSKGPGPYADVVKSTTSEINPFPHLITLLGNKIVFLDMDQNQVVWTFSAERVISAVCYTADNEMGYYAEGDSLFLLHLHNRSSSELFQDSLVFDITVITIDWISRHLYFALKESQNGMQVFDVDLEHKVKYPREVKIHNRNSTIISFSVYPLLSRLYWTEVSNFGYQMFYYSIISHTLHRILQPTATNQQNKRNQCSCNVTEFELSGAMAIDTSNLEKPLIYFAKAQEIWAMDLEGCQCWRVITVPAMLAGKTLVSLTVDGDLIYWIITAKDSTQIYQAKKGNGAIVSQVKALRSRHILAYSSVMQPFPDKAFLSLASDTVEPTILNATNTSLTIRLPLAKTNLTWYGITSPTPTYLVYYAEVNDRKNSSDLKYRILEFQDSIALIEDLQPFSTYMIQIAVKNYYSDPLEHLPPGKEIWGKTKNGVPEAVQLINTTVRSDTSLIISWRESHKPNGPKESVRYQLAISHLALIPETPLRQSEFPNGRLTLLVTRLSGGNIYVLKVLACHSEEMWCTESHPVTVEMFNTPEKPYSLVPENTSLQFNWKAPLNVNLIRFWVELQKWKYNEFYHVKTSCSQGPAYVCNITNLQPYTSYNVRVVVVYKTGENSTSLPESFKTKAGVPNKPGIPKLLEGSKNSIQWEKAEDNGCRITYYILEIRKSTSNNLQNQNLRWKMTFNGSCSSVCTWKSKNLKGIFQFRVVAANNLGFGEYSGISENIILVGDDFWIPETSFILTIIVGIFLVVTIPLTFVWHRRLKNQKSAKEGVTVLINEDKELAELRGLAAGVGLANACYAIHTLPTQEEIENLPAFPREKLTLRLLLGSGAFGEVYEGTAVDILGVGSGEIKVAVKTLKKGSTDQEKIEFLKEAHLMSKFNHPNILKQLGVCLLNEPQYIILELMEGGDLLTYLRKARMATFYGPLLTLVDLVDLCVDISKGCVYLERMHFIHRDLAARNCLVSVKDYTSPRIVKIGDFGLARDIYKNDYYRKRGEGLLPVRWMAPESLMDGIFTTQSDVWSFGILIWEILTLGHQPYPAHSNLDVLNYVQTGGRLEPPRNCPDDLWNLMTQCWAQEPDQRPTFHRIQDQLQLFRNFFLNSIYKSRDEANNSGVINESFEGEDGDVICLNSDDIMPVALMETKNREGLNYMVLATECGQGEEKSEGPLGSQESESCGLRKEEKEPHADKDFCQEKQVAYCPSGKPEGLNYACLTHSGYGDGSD
- Assay Info: Ba/F3-Ros1 cell proliferation assay, wild-type Ros1
- Assay type: cell-based, murine
- Experimental Parameters: without IL-3
The molecules listed here are annotated with their BaF3-ROS1-IL3 pIC50.
Value Kind: BaF3-ROS1-IL3 pIC50

>>> experimental_result("CC(C)c1ccc(COc2ccc(-c3c(-c4ccncn4)nn4c3C(=O)N(C)CC4)cc2)cc1 [Compound 214]")
7.4
>>> experimental_result("CC(C)c1ccc(COc2ccc(-c3c(-c4ccncc4)nn4c3C(=O)N(CCO)CC4)cc2F)cc1 [Compound 19]")
8.2
>>> experimental_result("CC(C)c1ccc(COc2ccc(-c3c(-c4ccncc4)nn4c3CN(C)CC4)cc2)cc1 [Compound 185]")
6.3
>>> experimental_result("CC(C)c1ccc(COc2ccc(-c3c(-c4ccncc4)nn4c3C(=O)N(CCOCCO)CC4)cc2)cc1 [Compound 53]")
7.4
>>> experimental_result("CC(C)c1ccc(COc2ccc(-c3c(-c4ccncc4)nn4c3C(=O)NCC4)cc2C#N)cc1 [Compound 26]")
6.6
>>> experimental_result("CN1CCn2nc(-c3ccncc3)c(-c3ccc(OCc4ccc(C5CC5)nc4)cc3)c2C1=O [Compound 138]")
6.9
>>> experimental_result("CC(C)c1ccc(COc2ccc(-c3c(-c4ccncc4)nn4c3C(=O)N(CC(O)CO)CC4)cc2)cc1 (stereo not drawn) [Compound 41]")
7.4
>>> experimental_result("CC(C)c1ccc(C(C)Oc2ccc(-c3c(-c4ccncc4)nn4c3C(=O)NCC4)cc2)cc1 (stereo not drawn) [Compound 143]")
6.4
>>> experimental_result("COc1cc(-c2c(-c3ccncc3)nn3c2C(=O)NCC3)ncc1OCc1ccc(C(C)C)cc1 [Compound 72]")
7.2
>>> experimental_result("CC(C)c1ccc(COC2CCN(c3c(-c4ccncc4)nn4c3C(=O)NCC4)CC2)cc1 [Compound 198]")
6.6
>>> experimental_result("CC(C)c1ccc(COc2cnc(-c3c(-c4ccncc4)nn4c3C(=O)NCC4)cn2)cc1 [Compound 76]")
6.8
>>> experimental_result("COc1ccc(COc2ccc(-c3c(-c4ccncc4)nn4c3CNCC4)cc2)cc1 [Compound 188]")
5.5
>>> experimental_result("CC(C)c1ccc(COc2ccc(-c3c(-c4ccnc(N)n4)nn4c3C(=O)NCC4)cc2)cc1 [Compound 13]")
7.5
>>> experimental_result("N#Cc1cccc(COc2ccc(-c3c(-c4ccncc4)nn4c3C(=O)NCC4)cc2)c1 [Compound 124]")
5.7
>>> experimental_result("CC(C)c1ccc(COc2ccc(-c3c(-c4ccncn4)nn4c3C(=O)N(C(C)C)CC4)cc2)cc1 [Compound 160]")
7.3
>>> experimental_result("CC(C)NC(=O)CN1CCn2nc(-c3ccncc3)c(-c3ccc(OCc4ccc(C(C)C)cc4)cc3)c2C1=O [Compound 65]")
7.2
>>> experimental_result("CC(C)c1ccc(C2CNc3cc(-c4c(-c5ccncc5)nn5c4C(=O)NCC5)ccc3O2)cc1 (racemic) [Compound 226]")
7.1
>>> experimental_result("CC(=O)OC(C)CN1CCn2nc(-c3ccncc3)c(-c3ccc(OCc4ccc(C(C)C)cc4)cc3)c2C1=O (stereo not drawn) [Compound 69]")
7.4
>>> experimental_result("CC(C)c1ccc(COc2ccc(-c3c(-c4cc[n+]([O-])cc4)nn4c3C(=O)NCC4)cc2)cc1 [Compound 170]")
5.2
>>> experimental_result("COc1cc(COc2ccc(-c3c(-c4ccncc4)nn4c3C(=O)NCC4)cc2)ccc1C(C)C [Compound 80]")
6.9
>>> experimental_result("CC(C)c1ccc(C(C)Oc2ccc(-c3c(-c4ccncc4)nn4c3C(=O)N(CCO)CC4)cc2)cc1 (stereo not drawn) [Compound 144]")
6.3
>>> experimental_result("COc1cc(-c2c(-c3ccncc3)nn3c2C(=O)N(CCO)CC3)cc(OC)c1OCc1ccc(C(C)C)cc1 [Compound 36]")
5.8
>>> experimental_result("CC(C)c1ccc(COc2ccc(-c3c(-c4ccncc4)nn4c3C(=O)N(C)C(CO)C4)cc2)cc1 (stereo not drawn) [Compound 196]")
6.9
>>> experimental_result("C[Si](C)(C)c1ccc(COc2ccc(-c3c(-c4ccncc4)nn4c3C(=O)NCC4)cc2)cc1 [Compound 232]")
6.7
>>> experimental_result("c1cc(-c2nn3c(c2-c2ccc(OCc4ccc(C5CC5)cc4)cc2)CNCC3)ccn1 [Compound 172]")
6.4
>>> experimental_result("CC(C)c1ccc(COc2ccc(-c3c(-c4ccncc4F)nn4c3C(=O)NCC4)c(F)c2)cc1 [Compound 152]")
8.0
>>> experimental_result("O=C1NCCn2nc(-c3ccncc3)c(-c3ccc(OCc4ccc(C5CC5)nc4)cc3)c21 [Compound 3]")
7.3
>>> experimental_result("CC(C)c1ccc(C(C)Oc2ccc(-c3c(-c4ccncc4)nn4c3C(=O)N(CCO)CC4)cc2)cc1 (stereo not drawn) [Compound 145]")
5.8
>>> experimental_result("CC(C)c1ccc(COc2ccc(-c3c(-c4ccncc4)nn4c3C(=O)N(CC(O)CO)CC4)cc2)c(F)c1F (stereo not drawn) [Compound 102]")
6.7
>>> experimental_result("CC(C)Cc1ccc(COc2ccc(-c3c(-c4ccncc4)nn4c3C(=O)N(CCO)CC4)cc2)cc1 [Compound 109]")
7.1

====

Reported melting point values follow for various molecules
Value Kind: melting point (°C)

>>> experimental_result("CNCC1Cn2nc(-c3ccncc3)c(-c3ccc(OCc4ccc(C(C)C)cc4)cc3)c2C(=O)N1 (stereo not shown)")
230
>>> experimental_result("CC(C)c1ccc(COc2ccc(-c3c(-c4ccncn4)nn4c3C(=O)N(C(C)C)CC4)cc2)cc1")
166
>>> experimental_result("CC(C)(CN)c1ccc(COc2ccc(-c3c(-c4ccncc4)nn4c3C(=O)NCC4)cc2)cc1")
233
>>> experimental_result("CC(C)c1ccc(C(C)Oc2ccc(-c3c(-c4ccncc4)nn4c3C(=O)NCC4)cc2)cc1 (stereo not shown)")
217

====

- Target: Ba/F3 cells containing Ros1 with a mutation at the gatekeeper residue (L2026M) (Homo sapiens, UniProt P08922, L2026M, cells depend on it, form not given)
- Sequence (P08922 whole entry L2026M, form open): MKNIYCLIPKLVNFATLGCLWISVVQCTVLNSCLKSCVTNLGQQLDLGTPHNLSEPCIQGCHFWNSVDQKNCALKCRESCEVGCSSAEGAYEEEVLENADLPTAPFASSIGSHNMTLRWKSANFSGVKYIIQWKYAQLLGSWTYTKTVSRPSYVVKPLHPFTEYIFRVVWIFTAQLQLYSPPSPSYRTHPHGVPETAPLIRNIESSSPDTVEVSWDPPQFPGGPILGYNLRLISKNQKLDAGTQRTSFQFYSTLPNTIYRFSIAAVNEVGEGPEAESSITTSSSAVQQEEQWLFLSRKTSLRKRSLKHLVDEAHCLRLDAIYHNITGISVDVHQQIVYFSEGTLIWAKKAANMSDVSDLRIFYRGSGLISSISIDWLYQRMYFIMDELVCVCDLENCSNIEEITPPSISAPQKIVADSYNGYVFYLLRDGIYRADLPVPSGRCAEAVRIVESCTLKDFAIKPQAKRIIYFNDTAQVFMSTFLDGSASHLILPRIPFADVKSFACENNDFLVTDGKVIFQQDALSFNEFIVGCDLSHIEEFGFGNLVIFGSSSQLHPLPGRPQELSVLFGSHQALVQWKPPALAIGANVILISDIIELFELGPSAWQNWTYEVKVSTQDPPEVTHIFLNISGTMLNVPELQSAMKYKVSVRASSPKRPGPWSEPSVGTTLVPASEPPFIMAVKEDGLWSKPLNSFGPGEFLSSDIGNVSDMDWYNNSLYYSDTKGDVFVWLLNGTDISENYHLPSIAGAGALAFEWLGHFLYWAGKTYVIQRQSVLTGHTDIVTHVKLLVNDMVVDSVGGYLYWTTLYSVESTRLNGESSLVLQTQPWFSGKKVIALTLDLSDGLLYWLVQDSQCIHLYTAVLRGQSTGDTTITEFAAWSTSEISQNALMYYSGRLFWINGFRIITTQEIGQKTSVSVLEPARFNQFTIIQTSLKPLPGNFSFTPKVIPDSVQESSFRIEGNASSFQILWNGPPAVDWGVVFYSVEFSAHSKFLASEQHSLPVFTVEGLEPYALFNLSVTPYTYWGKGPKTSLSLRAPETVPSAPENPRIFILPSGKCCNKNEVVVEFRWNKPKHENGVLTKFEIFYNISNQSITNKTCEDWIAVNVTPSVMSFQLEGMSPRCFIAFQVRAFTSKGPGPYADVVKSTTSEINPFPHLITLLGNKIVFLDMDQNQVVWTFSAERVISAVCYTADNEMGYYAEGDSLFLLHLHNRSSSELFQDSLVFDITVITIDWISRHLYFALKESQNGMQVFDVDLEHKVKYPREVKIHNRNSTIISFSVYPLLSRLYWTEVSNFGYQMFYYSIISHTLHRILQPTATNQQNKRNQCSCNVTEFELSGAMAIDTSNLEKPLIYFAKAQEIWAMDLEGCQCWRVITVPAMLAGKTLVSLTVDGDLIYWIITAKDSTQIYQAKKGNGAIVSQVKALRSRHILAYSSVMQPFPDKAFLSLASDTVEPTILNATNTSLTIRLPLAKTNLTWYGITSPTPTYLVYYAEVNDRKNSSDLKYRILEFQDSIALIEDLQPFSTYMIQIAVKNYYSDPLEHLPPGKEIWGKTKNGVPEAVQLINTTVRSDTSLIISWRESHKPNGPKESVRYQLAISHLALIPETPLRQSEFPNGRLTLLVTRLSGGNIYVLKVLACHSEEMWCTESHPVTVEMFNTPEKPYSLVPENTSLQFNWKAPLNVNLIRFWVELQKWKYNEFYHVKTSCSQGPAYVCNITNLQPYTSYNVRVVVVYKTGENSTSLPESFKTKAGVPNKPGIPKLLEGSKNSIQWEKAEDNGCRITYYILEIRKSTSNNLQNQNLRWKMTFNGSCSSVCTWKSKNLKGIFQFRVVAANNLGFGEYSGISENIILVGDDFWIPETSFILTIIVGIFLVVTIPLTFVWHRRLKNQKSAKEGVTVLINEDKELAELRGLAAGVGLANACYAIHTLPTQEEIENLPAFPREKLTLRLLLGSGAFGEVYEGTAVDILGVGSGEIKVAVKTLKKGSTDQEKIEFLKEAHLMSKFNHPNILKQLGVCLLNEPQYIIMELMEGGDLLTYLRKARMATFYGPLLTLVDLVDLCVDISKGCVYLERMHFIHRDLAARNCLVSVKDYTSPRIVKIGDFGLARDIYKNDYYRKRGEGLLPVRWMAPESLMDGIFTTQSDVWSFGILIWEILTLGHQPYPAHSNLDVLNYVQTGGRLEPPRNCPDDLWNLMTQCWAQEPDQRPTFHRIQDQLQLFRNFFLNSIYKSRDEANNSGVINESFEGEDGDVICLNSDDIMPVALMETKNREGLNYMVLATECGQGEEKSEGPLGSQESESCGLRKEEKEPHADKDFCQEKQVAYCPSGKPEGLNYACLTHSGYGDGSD
- Assay Info: Ba/F3-Ros1 cell proliferation assay, L2026M gatekeeper mutant
- Assay type: cell-based, murine
- Experimental Parameters: without IL-3
Value Kind: Ba/F3 Ros1 L2026M (-IL-3) pIC50

>>> experimental_result("CC(O)CN1CCn2nc(-c3ccncc3)c(-c3ccc(OCc4ccc(C(C)C)cc4)cc3)c2C1 (stereo not drawn) [Compound 191]")
7.0
>>> experimental_result("CC(C)c1ccc(COc2ccc(-c3c(-c4ccncc4)nn4c3C(=O)N(CC(O)CO)CC4)cc2)cc1 (stereo not drawn) [Compound 41]")
6.6
>>> experimental_result("CC(C)c1ccc(COc2ccc(-c3c(-c4ccncn4)nn4c3C(=O)N(CCN)CC4)cc2)cc1 [Compound 165]")
6.5
>>> experimental_result("CNCCc1cc(COc2ccc(-c3c(-c4ccncc4)nn4c3C(=O)NCC4)cc2)ccc1C(C)C [Compound 234]")
6.7
>>> experimental_result("C[Si](C)(C)c1ccc(COc2ccc(-c3c(-c4ccncc4)nn4c3C(=O)NCC4)cc2)cc1 [Compound 232]")
6.5
>>> experimental_result("Cc1cc(C(C)C)ccc1COc1ccc(-c2c(-c3ccncc3)nn3c2C(=O)NCC3)cc1 [Compound 78]")
6.9
>>> experimental_result("COc1cc(-c2c(-c3ccncc3)nn3c2C(=O)N(CCO)CC3)cc(OC)c1OCc1ccc(C(C)C)cc1 [Compound 36]")
5.7
>>> experimental_result("CC(C)c1ccc(COc2ccc(-c3c(-c4ccncn4)nn4c3C(=O)NCC4)cc2)cc1 [Compound 158]")
7.4
>>> experimental_result("CC(C)c1ccc(COc2ccc(-c3c(-c4ccncc4)nn4c3CN(CCO)CC4)c(F)c2)cc1 [Compound 187]")
6.4
>>> experimental_result("CC(C)c1ccc(COc2ccc(-c3c(-c4ccncc4)nn4c3C(=O)N(CC(=O)N(C)C)CC4)cc2)cc1 [Compound 64]")
6.6
>>> experimental_result("CC(O)CN1CCn2nc(-c3ccncc3)c(-c3ccc(OCc4ccc(C(C)C)cc4)cc3)c2C1=O (stereo not drawn) [Compound 47]")
7.5
>>> experimental_result("CC(C)c1ccc(COc2ccc(-c3c(-c4ccncc4)nn4c3C(=O)NCC4)cc2)cc1C#N [Compound 85]")
7.1
>>> experimental_result("CC(C)c1ccc(COc2ccc(-c3c(-c4ccncc4)nn4c3C(=O)N(CCO)CC4)cc2)c(F)c1F [Compound 100]")
6.3
>>> experimental_result("CC(C)c1cc(F)c(COc2ccc(-c3c(-c4ccncc4)nn4c3C(=O)N(CC(O)CO)CC4)cc2)c(F)c1 (stereo not drawn) [Compound 96]")
6.6
>>> experimental_result("O=C1c2c(-c3ccc(OCc4ccc(C5CC5)c(F)c4)cc3)c(-c3ccncc3)nn2CCN1CCO [Compound 137]")
6.4
>>> experimental_result("CCOP(=O)(CCN1CCn2nc(-c3ccncc3)c(-c3ccc(OCc4ccc(C(C)C)cc4)cc3)c2C1=O)OCC [Compound 68]")
6.5
>>> experimental_result("CC(C)c1ccc(COc2ncc(-c3c(-c4ccncc4)nn4c3C(=O)NCC4)cn2)cc1 [Compound 75]")
7.5
>>> experimental_result("CC(C)c1ccc(COc2ccc(-c3c(-c4ccncc4)nn4c3C(=O)N(CCO)CC4)c(F)c2)cc1CCO [Compound 205]")
7.5
>>> experimental_result("CC(C)c1ccc(COc2ccc(-c3c(-c4ccncc4)nn4c3C(=O)NCC4)cc2)cc1CCN [Compound 88]")
6.8
>>> experimental_result("CC(C)c1ccc(COc2ccc(-c3c(-c4ccnc5[nH]ccc45)nn4c3C(=O)NCC4)cc2)cc1 [Compound 155]")
7.5
>>> experimental_result("CC(O)CN1CCn2nc(-c3ccncc3)c(-c3ccc(OCc4ccc(C5CC5)cc4)cc3)c2C1=O (stereo not drawn) [Compound 135]")
7.0
>>> experimental_result("CC(C)c1ccc(COc2ccc(-c3c(-c4ccncn4)nn4c3C(=O)N(C)CC4)cc2)cc1 [Compound 214]")
7.3
>>> experimental_result("CC(C)c1ccc(COc2ccc(-c3c(-c4ccncc4)nn4c3C(=O)N(CCS(C)(=O)=O)CC4)cn2)cc1 [Compound 213]")
6.4
>>> experimental_result("CC(C)(CN)c1ccc(COc2ccc(-c3c(-c4ccncc4)nn4c3C(=O)NCC4)cc2)cc1 [Compound 121]")
5.9
>>> experimental_result("CC(C)c1ccc(COc2ccc(-c3c(-c4ccncc4)nn4c3C(=O)N(CCCN)CC4)cc2)cc1 [Compound 58]")
7.0
>>> experimental_result("CC(C)c1ccc(COc2ccc(-c3c(-c4ccncc4)nn4c3C(=O)N(C)C(CO)C4)cc2)cc1 (stereo not drawn) [Compound 196]")
6.4
>>> experimental_result("CC(C)OCC(O)CN1CCn2nc(-c3ccncc3)c(-c3ccc(OCc4ccc(C(C)C)cc4)cc3)c2C1=O (stereo not drawn) [Compound 45]")
6.6
>>> experimental_result("O=C1NCCn2nc(-c3ccncc3)c(-c3ccc(OCc4ccc(C5CC5)nc4)cc3)c21 [Compound 3]")
7.0
